Tested on: Fibroblast
TEST_SUMMARY: Incucyte cell viability with human fibroblast; further: filed as whole numbers so only -1 and 0 and 1 occur
Format: toxicity, cell-based
SETUP_CONDITIONS: 0 h, 10 µM, compound concentration 10 uM, replicate number 1, timepoint 0 hours
ASSAY_METRIC: Growth Rate

*Q* Sample COc1cc(N2CCC(O)CC2)ccc1Nc1cc(Nc2ccccc2S(=O)(=O)C(C)C)c2cc[nH]c2n1 — what was its Growth Rate?
*A* 1

*Q* Sample C/C(=N\NC(=O)[C@@H]1C(=O)NC[C@H]1c1ccccc1)c1cccc(Br)c1 — what was its Growth Rate?
*A* 1

*Q* Sample CC[C@@H]1CN(C(=O)NCC(F)(F)F)C[C@@H]1c1cnc2cnc3[nH]ccc3n12 — what was its Growth Rate?
*A* 0

*Q* Sample Cc1cc2c(cc1-c1cc(/C=C/C(=O)O)ccc1O)C(C)(C)CCC2(C)C — what was its Growth Rate?
*A* 0

*Q* Sample CCOC(=O)c1ccc(C#Cc2ccc3c(c2)C(C)(C)CCS3)nc1 — what was its Growth Rate?
*A* 0

*Q* Sample Cl.O=C(Cc1ccc(Cl)c(Cl)c1)N1CCCC[C@H]1CN1CCCC1 — what was its Growth Rate?
*A* 0

*Q* Sample COc1ccc2c(c1)O[C@@H](c1ccc(OC)c(OC)c1)C[C@H]2NC(=O)C1(c2ccc3c(c2)OC(F)(F)O3)CC1 — what was its Growth Rate?
*A* 0

*Q* Sample CN(C)CCCN1c2ccccc2CCc2ccccc21.Cl [IMIPRAMINE HYDROCHLORIDE] — what was its Growth Rate?
*A* 0

*Q* Sample Cc1ccc(NC(=O)Nc2cc(C(F)(F)F)ccc2F)cc1Nc1ccc2c(c1)NC(=O)/C2=C\c1ccc[nH]1 — what was its Growth Rate?
*A* 0

*Q* Sample O=C(O)[C@H]1[C@H](Cn2nnc3ccccc3c2=O)CC[C@@H]1C(=O)c1ccc(OCCC2CCOCC2)cc1 — what was its Growth Rate?
*A* 0

*Q* Sample NC(=O)c1ccc2nc(-c3ccc(C4(N)CCC4)cc3)c(-c3ccccc3)n2n1 — what was its Growth Rate?
*A* 1

*Q* Sample Cc1cc2c(cc1C1(c3ccc(C(=O)O)cn3)CC1)C(C)(C)CCC2(C)C — what was its Growth Rate?
*A* 1

*Q* Sample Cn1cc(Cl)c2c(Oc3c(F)cc(Nc4cc(Cl)nc(N)n4)cc3F)ccnc21 — what was its Growth Rate?
*A* 0

*Q* Sample Cc1cn2cc(CC(=O)N3CCC4(CC3)CN(Cc3ccc(-n5nccn5)cc3Cl)C4)nc2s1 — what was its Growth Rate?
*A* 1

*Q* Sample COc1ccc2c(c1)O[C@H](c1ccc(OC)c(OC)c1)C[C@@H]2NC(=O)C1(c2ccc3c(c2)OC(F)(F)O3)CC1 — what was its Growth Rate?
*A* 0

*Q* Sample N#CC1(c2ccccn2)CCN(Cc2cc(C(=O)O)c(=O)n3ccccc23)CC1 — what was its Growth Rate?
*A* 0

*Q* Sample CNC(=O)Nc1ccc2c(c1)CC[C@@]21OC(=O)N(CC(=O)N(Cc2ccc(F)cc2)[C@@H](C)C(F)(F)F)C1=O — what was its Growth Rate?
*A* 0

----------
So I've got a bunch of compounds here, and I need their Population Hoechst High Intensity Objects (%) values.
Test system: U2OS
TEST_SUMMARY: Multiplex assay against U2OS
Assay type: toxicity, cell-based
SETUP_CONDITIONS: human, 24 h, 1 µM, compound concentration 1 uM, replicate 1
Note: unit % is implicit; provide only the numeric part.

*Q* Sample Cc1c(Nc2ccc(S(=O)(=O)N3CCN(C)CC3)cc2F)nc2ccc(Nc3cnn(C4CC4)c3)cn2c1=O — what was its Population Hoechst High Intensity Objects (%)?
*A* 1

*Q* Sample CC(C)[C@H](CO)Nc1nc(Nc2cccc(Cl)c2)c2ncn(C(C)C)c2n1 — what was its Population Hoechst High Intensity Objects (%)?
*A* 5

*Q* Sample COc1cc(Nc2ccnc3ccc(Br)cc23)cc(OC)c1OC — what was its Population Hoechst High Intensity Objects (%)?
*A* 6

*Q* Sample N#CCNC(=O)c1ccc(-c2ccnc(Nc3ccc(N4CCOCC4)cc3)n2)cc1 — what was its Population Hoechst High Intensity Objects (%)?
*A* 3

*Q* Sample N#Cc1cccc(C(=O)Nc2cc(-c3ccccc3)nn2-c2ccccc2)c1 — what was its Population Hoechst High Intensity Objects (%)?
*A* 11

*Q* Sample CC[C@H](Nc1ncnc2[nH]cnc12)c1nc2cccc(F)c2c(=O)n1-c1ccccc1 — what was its Population Hoechst High Intensity Objects (%)?
*A* 3

*Q* Sample CCCCCNC(=N)N/N=C/c1c[nH]c2ccc(OC)cc12.O=C(O)/C=C\C(=O)O [TEGASEROD MALEATE] — what was its Population Hoechst High Intensity Objects (%)?
*A* 4

*Q* Sample NC(=O)c1ccc2nc(-c3ccc(C4(N)CCC4)cc3)c(-c3ccccc3)n2n1 — what was its Population Hoechst High Intensity Objects (%)?
*A* 5

*Q* Sample CC[C@@H]1C(=O)N(C)c2cnc(Nc3ccc(C(=O)NC4CCN(C)CC4)cc3OC)nc2N1C1CCCC1 — what was its Population Hoechst High Intensity Objects (%)?
*A* 2

*Q* Sample C=CC(=O)Nc1cc(-n2c(=O)ccc3cnc4ccc(-c5ccc(NS(C)(=O)=O)cc5)cc4c32)ccc1C — what was its Population Hoechst High Intensity Objects (%)?
*A* 4

*Q* Sample CC(C)c1cc(Nc2nc(N3CCC[C@H](N)C3)ncc2C(N)=O)cc(C(C)C)n1 — what was its Population Hoechst High Intensity Objects (%)?
*A* 6

*Q* Sample CCOc1ccn(-c2ccc(F)cc2)c(=O)c1C(=O)Nc1ccc(Oc2ccnc(N)c2Cl)c(F)c1 — what was its Population Hoechst High Intensity Objects (%)?
*A* 3

*Q* Sample CC[C@@H]1C(=O)N(C)c2cnc(Nc3ccc(C(=O)N[C@H]4CC[C@H](N5CCN(CC6CC6)CC5)CC4)cc3OC)nc2N1C(C)C — what was its Population Hoechst High Intensity Objects (%)?
*A* 5

*Q* Sample Cl.Cn1c2c(c3ccc(Cl)c(Cl)c31)C(C#N)C1(CCNCC1)NC2=O (configuration not stated) — what was its Population Hoechst High Intensity Objects (%)?
*A* 1

*Q* Sample CC(/C=C1\SC(=S)N(CCCC(=O)Nc2ccc(C(=O)O)c(O)c2)C1=O)=C\c1ccccc1 — what was its Population Hoechst High Intensity Objects (%)?
*A* 4

*Q* Sample CC(Cc1ccc(O)c(O)c1)C(C)Cc1ccc(O)c(O)c1 (configuration not stated) [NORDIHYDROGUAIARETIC ACID] — what was its Population Hoechst High Intensity Objects (%)?
*A* 7

*Q* Sample Cl.NC[C@@H]1O[C@H](C23CC4CC(CC(C4)C2)C3)Cc2c1ccc(O)c2O — what was its Population Hoechst High Intensity Objects (%)?
*A* 7
